Give measured Blackgrass plant response rating (0-100) for each item. Keep answers brief.
- System: blackgrass (Alopecurus myosuroides)
- test summary: Test A preemergence soil spray, visual injury rating 0-100
- Type: in vivo
- test context: 62 g ai/ha, 10 days, 0 = no effect, 100 = complete control

Query string: State its Blackgrass plant response rating (0-100) for this compound: CC(C)OC(=O)C1=CCC(NC(=O)C2(C)CN(c3cc(F)cc(F)c3)C(=O)O2)C1 (stereo not shown) [Compound 99]
Result string: 0

Query string: Assign Blackgrass plant response rating (0-100) to the following record: COC(=O)C1C=CC(NC(=O)C2(C)CN(c3cc(F)cc(F)c3)C(=O)O2)C1 (mixture of isomers) [Compound 161]
Result string: 90

Query string: Indicate the recorded Blackgrass plant response rating (0-100) value for this compound: CCOC(=O)C1=CCC(NC(=O)C2(C)CN(c3cc(Cl)cc(Cl)c3)C(=O)O2)C1 (stereo not shown) [Compound 113]
Result string: 0

Query string: Give me measured Blackgrass plant response rating (0-100), please, for this compound: C=CC1(C(=O)NC2COC(C(=O)OC)C2)CN(c2cc(F)cc(F)c2)C(=O)O1 (stereo not shown) [Compound 171]
Result string: 90

Query string: Supply Blackgrass plant response rating (0-100) value. Item: CC1(C(=O)NC2CC=C(C(=O)OCC(F)F)C2)CN(c2cc(Cl)cc(Cl)c2)C(=O)O1 (stereo not shown) [Compound 154]
Result string: 0

Query string: Supply reported Blackgrass plant response rating (0-100) belonging to this compound: CCOC(=O)C1=CCC(NC(=O)C2(C)CN(c3cc(F)cc(Cl)c3)C(=O)O2)C1 (stereo not shown) [Compound 134]
Result string: 30

Query string: Give the measured Blackgrass plant response rating (0-100) for C=CC1(C(=O)NC2CC=C(C(=O)OC)C2)CN(c2cc(F)cc(F)c2)C(=O)O1 (racemic) [Compound 169]
Result string: 30

* * *

Hi there, I'd appreciate the recorded Pigweed, Palmer plant response rating (0-100) for every entry that follows.
- Tested on: palmer (palmer amaranth, palmer pigweed, Amaranthus palmeri)
- test summary: Test A postemergence application, visual injury rating 0-100
- Format: in vivo
- test context: 62 g ai/ha, postemergence, 10 days, 0 = no effect, 100 = complete control
Could you keep your reply to the number by itself?

Query string: Jot down Pigweed, Palmer plant response rating (0-100) (palmer (palmer amaranth, palmer pigweed, Amaranthus palmeri)) of COC(=O)C1C=CC(NC(=O)C2(C(F)(F)F)CN(c3cc(F)c(F)c(F)c3)C(=O)O2)C1 (mixture of isomers) .
Result string: 50

Query string: Specify the recorded Pigweed, Palmer plant response rating (0-100) for CC(C)OC(=O)C1=CCC(NC(=O)C2(C)CN(c3cc(Cl)cc(Cl)c3)C(=O)O2)C1 (stereo not shown) , system: palmer (palmer amaranth, palmer pigweed, Amaranthus palmeri).
Result string: 10

Query string: For palmer (palmer amaranth, palmer pigweed, Amaranthus palmeri), give Pigweed, Palmer plant response rating (0-100) of the listed molecule: CC1(C(=O)NC2CC=C(C(=O)O)C2)CN(c2cc(Cl)cc(Cl)c2)C(=O)O1 (stereo not shown)
Result string: 50

Query string: Report its Pigweed, Palmer plant response rating (0-100) with palmer (palmer amaranth, palmer pigweed, Amaranthus palmeri) as the test system: CC1(C(=O)NC2CC=C(C(=O)OCC(F)F)C2)CN(c2cc(Cl)cc(Cl)c2)C(=O)O1 (stereo not shown)
Result string: 90

Query string: # lookup: palmer (palmer amaranth, palmer pigweed, Amaranthus palmeri) Pigweed, Palmer plant response rating (0-100), key = COC(=O)COC(=O)C1=CCC(NC(=O)C2(C)CN(c3cc(F)cc(F)c3)C(=O)O2)C1 (stereo not shown)
Result string: 90

Query string: Print palmer (palmer amaranth, palmer pigweed, Amaranthus palmeri) Pigweed, Palmer plant response rating (0-100) for CCOC(=O)C1=CCC(NC(=O)C2(C)CN(c3cc(F)cc(Cl)c3)C(=O)O2)C1 (stereo not shown) .
Result string: 0

Query string: System palmer (palmer amaranth, palmer pigweed, Amaranthus palmeri). Read-out Pigweed, Palmer plant response rating (0-100). Item CC1(C(=O)NC2C=CC(C(=O)O)C2)CN(c2cc(Cl)c(F)c(Cl)c2)C(=O)O1 (stereo not shown) . Report value.
Result string: 70

Query string: Report value: Pigweed, Palmer plant response rating (0-100), system: palmer (palmer amaranth, palmer pigweed, Amaranthus palmeri), molecule: C=CC1(C(=O)NC2CC(C(=O)OC)C2)CN(c2cc(F)cc(F)c2)C(=O)O1 (stereo not shown) [Compound 174]
Result string: 0

Query string: Quote palmer (palmer amaranth, palmer pigweed, Amaranthus palmeri) Pigweed, Palmer plant response rating (0-100) for entry CC1(C(=O)NC2CC=C(C(=O)O)C2)CN(c2cc(F)cc(Cl)c2)C(=O)O1 (stereo not shown) .
Result string: 90

Query string: Given C=CC1(C(=O)NC2CC=C(C(=O)OC)C2)CN(c2cc(F)cc(F)c2)C(=O)O1 (racemic) , report its Pigweed, Palmer plant response rating (0-100) on palmer (palmer amaranth, palmer pigweed, Amaranthus palmeri).
Result string: 70

Query string: Give Pigweed, Palmer plant response rating (0-100) for this entry on palmer (palmer amaranth, palmer pigweed, Amaranthus palmeri): CC1(C(=O)NC2CC=C(C(=O)OCC(F)F)C2)CN(c2cc(F)cc(F)c2)C(=O)O1 (stereo not shown)
Result string: 90

Query string: Report the value of Pigweed, Palmer plant response rating (0-100) obtained on palmer (palmer amaranth, palmer pigweed, Amaranthus palmeri) for CC(C)COC(=O)C1=CCC(NC(=O)C2(C)CN(c3cc(Cl)cc(Cl)c3)C(=O)O2)C1 (stereo not shown) .
Result string: 90

Query string: Given CC1(C(=O)NC2CC=C(C(=O)NS(C)(=O)=O)C2)CN(c2cc(F)cc(F)c2)C(=O)O1 (racemic) , report its Pigweed, Palmer plant response rating (0-100) on palmer (palmer amaranth, palmer pigweed, Amaranthus palmeri).
Result string: 70

Query string: Send back palmer (palmer amaranth, palmer pigweed, Amaranthus palmeri) Pigweed, Palmer plant response rating (0-100) of C=CC1(C(=O)NC2CC(C(=O)OC)C2)CN(c2cc(F)cc(F)c2)C(=O)O1 (stereo not shown) [Compound 172] only.
Result string: 60

Query string: Using palmer (palmer amaranth, palmer pigweed, Amaranthus palmeri) as the test system, report measured Pigweed, Palmer plant response rating (0-100) of CCOC(=O)C1=CCC(NC(=O)C2(C)CN(c3cc(F)cc(F)c3)C(=O)O2)C1 (stereo not shown) [Compound 111] .
Result string: 10

Query string: // fetch Pigweed, Palmer plant response rating (0-100) for COC(=O)C1=CCC(NC(=O)C2(C)CN(c3cc(Cl)cc(Cl)c3)C(=O)O2)C1 (stereo not shown) ; system: palmer (palmer amaranth, palmer pigweed, Amaranthus palmeri)
Result string: 80

* * *

- Tested on: soybean (Glycine max)
- test summary: Test A postemergence application, visual injury rating 0-100
- Type: in vivo
- test context: 31 g ai/ha, postemergence, 10 days, 0 = no effect, 100 = complete control
Give measured Soybean plant response rating (0-100) for each item. Keep answers brief.
Provide a numeric answer; units are not to be included.

Query string: Give the reported Soybean plant response rating (0-100) for this compound. CSCCOC(=O)C1=CCC(NC(=O)C2(C)CN(c3cc(F)cc(F)c3)C(=O)O2)C1 (stereo not drawn) [Compound 22]
Result string: 70

Query string: Retrieve Soybean plant response rating (0-100) measured for CCOC(=O)C1CCC(NC(=O)C2(C)CN(c3cc(F)cc(F)c3)C(=O)O2)C1 (stereo not drawn) and print it.
Result string: 50

Query string: Using known records, supply Soybean plant response rating (0-100) for CONC(=O)C1CC(NC(=O)C2(C)CN(c3cc(F)cc(F)c3)C(=O)O2)CO1 (stereo not drawn)
Result string: 0

Query string: Hello, please tell me recorded Soybean plant response rating (0-100) for this one: CC1(C(=O)NC2CCC(C(=O)O)C2)CN(c2cc(F)cc(F)c2)C(=O)O1 (stereo not drawn)
Result string: 60

Query string: Quick one: give measured Soybean plant response rating (0-100) for CSCCOC(=O)C1=CCC(NC(=O)C2(C)CN(c3cc(F)cc(F)c3)C(=O)O2)C1 (stereo not drawn) [Compound 23]
Result string: 80

Query string: Write down Soybean plant response rating (0-100) measured for item CC(C)OC(=O)C1CC(NC(=O)C2(C)CN(c3cc(F)cc(F)c3)C(=O)O2)CO1 (stereo not drawn)
Result string: 20

* * *

- Tested on: kochia (Bassia scoparia)
- test summary: Test A postemergence application, visual injury rating 0-100
- Format: in vivo
- test context: 62 g ai/ha, postemergence, 10 days, 0 = no effect, 100 = complete control
Exercise: state measured Kochia plant response rating (0-100) for each of the molecules provided.
// print number alone

Query string: Report value only: Kochia plant response rating (0-100), kochia (Bassia scoparia), CC1(C(=O)NC2CC=C(C(=O)O)C2)CN(c2cc(F)cc(F)c2)C(=O)O1 (stereo not shown)
Result string: 90

Query string: Give kochia (Bassia scoparia) Kochia plant response rating (0-100) for the following molecule: CC(C)COC(=O)C1=CCC(NC(=O)C2(C)CN(c3cc(F)cc(Cl)c3)C(=O)O2)C1 (stereo not shown)
Result string: 0

Query string: GET Kochia plant response rating (0-100) where system = kochia (Bassia scoparia) and item = CC(C)COC(=O)C1=CCC(NC(=O)C2(C)CN(c3cc(Cl)cc(Cl)c3)C(=O)O2)C1 (stereo not shown) [Compound 155]
Result string: 40

Query string: Give reported Kochia plant response rating (0-100) for C=CC1(C(=O)NC2COC(C(=O)OC)C2)CN(c2cc(F)cc(F)c2)C(=O)O1 (stereo not shown) (kochia (Bassia scoparia))
Result string: 80

Query string: Return reported Kochia plant response rating (0-100) for target or system kochia (Bassia scoparia), item CC1(C(=O)NC2CC=C(C(=O)O)C2)CN(c2cc(F)cc(Cl)c2)C(=O)O1 (stereo not shown) .
Result string: 80

Query string: Find Kochia plant response rating (0-100) for CCOC(=O)C1=CCC(NC(=O)C2(C)CN(c3cc(F)cc(Cl)c3)C(=O)O2)C1 (stereo not shown) on kochia (Bassia scoparia) and write it down.
Result string: 0

Query string: Fill in: Kochia plant response rating (0-100) on kochia (Bassia scoparia), entry C=CC1(C(=O)NC2C=CC(C(=O)O)C2)CN(c2cc(F)cc(F)c2)C(=O)O1 (mixture of isomers)
Result string: 80

Query string: Name the recorded Kochia plant response rating (0-100) of CC1(C(=O)NC2C=CC(C(=O)O)C2)CN(c2cc(F)cc(F)c2)C(=O)O1 (stereo not shown) , assay system kochia (Bassia scoparia).
Result string: 80

Query string: Please indicate recorded Kochia plant response rating (0-100) of COC(=O)C1C=CC(NC(=O)C2(C)CN(c3cc(Cl)c(F)c(Cl)c3)C(=O)O2)C1 (stereo not shown) measured with kochia (Bassia scoparia).
Result string: 70

Query string: Report the value of Kochia plant response rating (0-100) obtained on kochia (Bassia scoparia) for COC(=O)C1CC(NC(=O)C2(C(F)(F)F)CN(c3cc(F)cc(F)c3)C(=O)O2)C2CC12 (stereo not shown) .
Result string: 70

Query string: Give measured Kochia plant response rating (0-100) for CC(C)COC(=O)C1=CCC(NC(=O)C2(C)CN(c3cc(Cl)cc(Cl)c3)C(=O)O2)C1 (stereo not shown) [Compound 156] (kochia (Bassia scoparia)).
Result string: 80

Query string: State the measured Kochia plant response rating (0-100) (kochia (Bassia scoparia)) of CC1(C(=O)NC2CC(C(=O)O)C2)CN(c2cc(F)cc(Cl)c2)C(=O)O1 (racemic)
Result string: 90

Query string: Consider the molecule CC(C)OC(=O)C1=CCC(NC(=O)C2(C)CN(c3cc(F)cc(F)c3)C(=O)O2)C1 (stereo not shown) tested on kochia (Bassia scoparia); state its Kochia plant response rating (0-100).
Result string: 90

Query string: Report value: Kochia plant response rating (0-100), system: kochia (Bassia scoparia), molecule: CC1(C(=O)NC2CC=C(C(=O)OCC(F)F)C2)CN(c2cc(Cl)cc(Cl)c2)C(=O)O1 (stereo not shown)
Result string: 0

Query string: Give Kochia plant response rating (0-100) for CC1(C(=O)NC2CC(C(=O)O)C2)CN(c2cc(F)cc(F)c2)C(=O)O1 (stereo not shown) tested on kochia (Bassia scoparia).
Result string: 80

Query string: With kochia (Bassia scoparia) as the test system, provide measured Kochia plant response rating (0-100) for this molecule: Cc1cc(C)cc(N2CC(C)(C(=O)NC3C=CC(C(=O)O)C3)OC2=O)c1 (stereo not shown)
Result string: 30
